Measured values drawn from patent US6326390A for this set.

ASSAY SYSTEM: rat brain A1 adenosine receptor (Rattus norvegicus, UniProt P25099)
Construct: membranes of rat brain
Sequence (P25099 whole entry): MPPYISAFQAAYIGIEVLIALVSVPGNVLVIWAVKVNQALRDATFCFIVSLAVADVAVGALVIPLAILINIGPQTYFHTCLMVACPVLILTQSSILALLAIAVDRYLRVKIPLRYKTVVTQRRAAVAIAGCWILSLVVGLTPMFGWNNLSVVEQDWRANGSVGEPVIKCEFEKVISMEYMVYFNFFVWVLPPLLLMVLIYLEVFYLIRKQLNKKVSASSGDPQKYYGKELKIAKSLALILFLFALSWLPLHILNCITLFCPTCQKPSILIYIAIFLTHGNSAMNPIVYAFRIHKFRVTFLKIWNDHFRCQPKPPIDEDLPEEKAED
METHOD NOTES: Rat A1 adenosine receptor binding assay, displacement of [^3 H]CHA
RUN CONDITIONS: rat brain membranes, [^3 H]CHA 1 nM; read-out: rA1 (Ki)
OUTCOME MEASURE: Ki

Summary: `CCCn1cc2c(nc(NC(=O)Nc3ccc(OC)cc3)n3nc(-c4ccco4)nc23)n1` , rat brain A1 adenosine receptor (Rattus norvegicus, UniProt P25099), Ki = > 10 µM
